All figures here come from ChEMBL document CHEMBL3872205.

Assay: Tmax in Wistar rat plasma at 30 mg/kg, po by HPLC analysis
Type: ADME, organism-based
observable: Tmax

Requested read-out: Tmax. Entry: CCCCC1=NC2(CCCC2)C(=O)N1Cc1ccc2c(ccn2-c2ccccc2-c2nnn[nH]2)c1
5 h

* * *

Experiment: Cmax in Wistar rat kidney at 30 mg/kg, po by HPLC analysis
Type: ADME, organism-based
Parameters: dose 30 mg/kg, route oral
observable: Cmax (ng/mL)
The response must be a number in ng/mL with no trailing unit.

Requested read-out: Cmax. Entry: CCCCC1=NC2(CCCC2)C(=O)N1Cc1ccc2c(ccn2-c2ccccc2-c2nnn[nH]2)c1
396
